Test system: HCT-15 colon
Test: NCI tumour cell line growth inhibition, 48 h; in the data active = GI50 below about 0.43 µM; inactive = the rest
Assign a class; possible classes are active, inactive

compound=Nc1c(C(=O)Nc2ccccn2)sc2nc3c(cc12)CCCCCC3 class=active
compound="CC(=O)OC1COC(Oc2c(C)c3c4c(c2O)[C@@H](C)CC[C@@H]4[C@@H](C)C[C@H]3C=C(C)C)C(O)C1O (stereo partly drawn)" class=inactive

Just curious, what result did CCN(CC)C(=O)CCCCCn1c2ccccc2c2c3c(c4c5ccccc5[nH]c4c21)C(=O)N(O)C3=O get here?
inactive

---

Test system: UACC-62 melanoma
Assay: NCI tumour cell line growth inhibition, 48 h
Below, each entry is listed alongside its reported TGI.

compound="O=C(CCC(=O)C1Cc2ccccc2C1=O)Nc1cccc(C(F)(F)F)c1 (stereo not given)" measured_value="> 100 µM"
compound=CCOC(=O)COc1cccc2occc(=O)c12 measured_value="> 100 µM"
compound="O=c1[nH]c(=O)n(C2CC(O)C(O)C(CO)O2)cc1F (stereo not given)" measured_value="> 100 µM"
compound=CC1(C)CC(O)CC(C)(C)N1.CC1(C)CC(O)CC(C)(C)N1.CC1(C)CC(O)CC(C)(C)N1.CC1(C)CC(O)CC(C)(C)N1.Cl.[Ti] measured_value="> 100 µM"
compound="CC(=O)Nc1cc(/C=C\\C(=O)N2CC(CCl)c3c2cc(N)c2ccccc32)n(C)n1 (stereo not given)" measured_value="0.0284 µM"

For the compound O=C(/C=C/c1ccc(Cl)cc1)c1ccc(Cl)s1 , what TGI is on record?
93 µM

// lookup TGI for Cc1n(Cc2ccc3ccccc3n2)cc[n+]1Cc1ccc2ccccc2c1
3.61 µM

Can you share its TGI? I mean this compound: CN1CC[C@]23c4c5ccc(O)c4OC2c2[nH]ncc2C[C@H]3[C@H]1C5 (stereo not given in full)
> 100 µM

Using the record for O=C1c2ccccc2-c2c1c1ccc([N+](=O)[O-])cc1c(=O)n2CCCCl , report its TGI.
> 100 µM

Fill blank: measured TGI of the compound Cc1cc(/N=C/c2ccc(Cl)cc2)n(-c2ccccc2)n1 is ____.
> 100 µM

---

System: UACC-62 melanoma
Experiment: NCI tumour cell line growth inhibition, 48 h
reported_endpoint: log10 of TGI (log10 of the value in µM)
Parameter value (number): base-10 log of TGI in µM.

compound=CCOC(=O)[C@@H]1C[C@@H]1c1ccc(O)c(O)c1 tested_target="UACC-62 melanoma" measured_value=1.43
compound=CC(C)C/C(=N\NC(=O)c1ccncc1)c1cc(Cl)ccc1O tested_target="UACC-62 melanoma" measured_value=0.91
compound=O=C1c2ccoc2C(=O)c2oc(=O)ccc21 tested_target="UACC-62 melanoma" measured_value=1.50
compound="CCCCCC(/C=C/[C@@H]1[C@@H](C(O)CCCCCC(=O)OC)C(=O)C[C@H]1O[Si](C)(C)C(C)(C)C)OCOCCOC (stereo partly drawn)" tested_target="UACC-62 melanoma" measured_value=1.44
compound=COc1cc(S(=O)(=O)Nc2ccc(-c3csc(/N=C\c4cccs4)n3)cc2)ccc1Cl tested_target="UACC-62 melanoma" measured_value=1.96

Returns the measured log10 of TGI for the input compound. Input: Cc1ccc(NC2=CC(=O)C(=O)c3ccccc32)c(C)c1
0.57

---

Here, each record is paired with measured TGI data.
Test system: NCI-H522 lung
Assay: NCI tumour cell line growth inhibition, 48 h

Check out these entries, answers already filled in.
compound="CCCC(=O)OC1C(C2COC(C)(C)O2)OC2OC(C)(C)OC21 (stereo unspecified)" tested_target="NCI-H522 lung" measured_value="> 100 µM"
compound=Cc1cc(NS(=O)(=O)c2ccc(NC(=O)c3ccc4nc5ccccc5c(Nc5ccc(S(=O)(=O)Nc6cc(C)on6)cc5)c4c3)cc2)no1 tested_target="NCI-H522 lung" measured_value="> 50 µM"
compound="CC1(C)OC2OC(COC(=O)C(c3ccccc3)c3ccccc3)C3OC(C)(C)OC3C2O1 (stereo unspecified)" tested_target="NCI-H522 lung" measured_value="> 100 µM"
compound=O=S(=O)(c1ccc2ccccc2c1)N1CCN(S(=O)(=O)c2ccc3ccccc3c2)CC1 tested_target="NCI-H522 lung" measured_value="> 100 µM"
compound="Nc1ncnc2c1N=C(c1ccccc1)CC(c1ccccc1)N2 (stereo unspecified)" tested_target="NCI-H522 lung" measured_value="> 100 µM"

What does the data say about its TGI? Entry: CC(N)=O.[Cl][Pt][Cl].[NH-]c1ccn(C2OC(CO)C(O)C2O)c(=O)n1 (stereo unspecified)
> 100 µM

Would you mind telling me what TGI value was observed for COc1cc(OC)c(/C=C/C(=O)c2c(N)cc(OC)cc2OC)c(OC)c1 ?
0.901 µM

Give its TGI value. Item: Cc1cc(/N=C/c2ccc(Cl)cc2)n(-c2ccccc2)n1
> 100 µM

---

Tested on: MALME-3M melanoma
Test: NCI tumour cell line growth inhibition, 48 h
reported_endpoint: TGI

// below: answered compounds
compound=C=CCCCCCCCCC(=O)ON(Cc1ccc(O)c(OC)c1)C(=O)C(F)(F)F tested_target="MALME-3M melanoma" reported_endpoint=TGI measured_value="> 100 µM"
compound=Cc1n(Cc2ccc3ccccc3n2)cc[n+]1Cc1ccc2ccccc2c1 tested_target="MALME-3M melanoma" reported_endpoint=TGI measured_value="2.37 µM"
compound="CCOC(=O)C1=C(C)N(CC(C)C)C2(O)C(OC)CC(=O)C3C(=O)N(c4ccccc4)C(=O)C132 (centres undefined)" tested_target="MALME-3M melanoma" reported_endpoint=TGI measured_value="96.7 µM"
compound=O=C(/C=C/c1cccc(Oc2ccc(Cl)cc2)c1)c1ccccc1 tested_target="MALME-3M melanoma" reported_endpoint=TGI measured_value="175 µM"
compound="CN1CC[C@]23c4c5ccc(O)c4OC2c2[nH]ncc2C[C@H]3[C@H]1C5 (some centres undefined)" tested_target="MALME-3M melanoma" reported_endpoint=TGI measured_value="> 100 µM"
compound=O=C(/C=C\c1ccc(/C=C/C(=O)Nc2cccc(C3=NCCCN3)c2)cc1)Nc1cccc(C2=NCCCN2)c1 tested_target="MALME-3M melanoma" reported_endpoint=TGI measured_value="> 100 µM"
compound=COc1cc(S(=O)(=O)Nc2ccc(-c3csc(/N=C\c4cccs4)n3)cc2)ccc1Cl tested_target="MALME-3M melanoma" reported_endpoint=TGI measured_value="> 100 µM"
compound="O=c1[nH]c(=O)n(C2CC(O)C(O)C(CO)O2)cc1F (centres undefined)" tested_target="MALME-3M melanoma" reported_endpoint=TGI measured_value="> 100 µM"

Switching to the query record.
// lookup TGI for CC1=C2CC(C)(C)CC(=O)C2(C)CCC1=O (centres undefined)
> 100 µM

---

Test system: SF-539 CNS
Experiment: NCI tumour cell line growth inhibition, 48 h
Form field: TGI (one value per entry).
Write it as a number; the unit µM goes unstated.

molecule=COc1cccc(-c2[nH]c3cc4c(cc3c(=O)c2C(=O)O)OCO4)c1 units=µM measured_value=69.4

SF-539 CNS / TGI / C=CC(C)(O)CCC1C(=C)C(O)CC2C(C)(C)CCCC12C (stereo not drawn) : value?
31.7

What measured TGI is associated with Cc1ccc(O)cc1Nc1ccnc2cc(-c3ccccn3)ccc12 on SF-539 CNS?
6.68

Query the reported TGI for SF-539 CNS; item: CC(=O)O[C@H]1C[C@H]2[C@@H]([C@H](OC(C)=O)C[C@@H]3CC4(CC[C@@]32C)OOC2(CCCCC2)OO4)[C@@H]2CC[C@H]([C@H](C)CCC(=O)O)[C@@]12C
20.3

---

Test system: EKVX NSCLC
Experiment: NCI tumour cell line growth inhibition, 48 h
reported_endpoint: TGI

compound=CC(C)=CC(=O)CC(=O)C(=O)NCCNC(=O)C(=O)CC(=O)C=C(C)C reported_endpoint=TGI measured_value="> 50 µM"
compound=CC(=O)Oc1ccc(/C=C/C(=O)NCCOC(=O)/C=C/c2ccc(OC(C)=O)c(OC(C)=O)c2)cc1OC(C)=O reported_endpoint=TGI measured_value="> 100 µM"
compound=c1ccc2c(c1)[O][Sn][O]2 reported_endpoint=TGI measured_value="> 150 µg/mL"
compound="O=C1Nc2ccccc2C1S(=O)(=O)c1ccccc1 (stereo not given)" reported_endpoint=TGI measured_value="> 100 µM"

Which TGI is listed for COc1ccc2c(C(=O)c3c(C)n(CCN4CCOCC4)c4ccccc34)cccc2c1 ?
> 100 µM

---

Tested on: HS 578T breast
Assay: NCI tumour cell line growth inhibition, 48 h
Reported TGI is given for each of the following compounds.

Illustrative cases are given below, each with its answer.
compound=O=C1NC2=NN=C(c3ccc(Br)cc3)CN2NC12c1ccccc1-c1ccccc12 measured_value="> 100 µM"
compound=Cc1cc2c3c(c1)CCCN3CCC2 measured_value="> 10 µM"
compound=COc1ncc2cc1NS(=O)(=O)c1cccc(c1)C(=O)NCC1=CC=C(S1)c1ncnc3c1SC2=C3C measured_value="0.355 µM"
compound="CCc1c(C#N)c(SC(C(N)=O)c2ccccc2)nc(N2CCC(N)CC2)c1C#N (configuration not stated)" measured_value="41.1 µM"
compound=COC(=O)C1=Nc2ccc(F)cc2/C1=C/c1sc(=S)[nH]c1O measured_value="21.6 µM"
compound=Cc1cc(/N=C/c2ccc(Cl)cc2)n(-c2ccccc2)n1 measured_value="> 100 µM"
compound=COc1cc2c3c(n(CCCN4CCSCC4)c(=O)c2cc1OC)-c1cc2c(cc1C3=O)OCO2 measured_value="> 100 µM"
compound=O=C(/C=C/c1cccs1)c1ccc([N+](=O)[O-])cc1 measured_value="> 100 µM"
compound=CCN(CC)C(=S)SSCCO measured_value="34.7 µM"
compound=Cc1cc2c(cc1C)[n+](=O)c(C(=O)/C=C/c1ccccc1[N+](=O)[O-])c(C)n2[O-] measured_value="> 77.2 µM"

What measured TGI goes with COc1cccc(/C=C2/S/C(=N/Nc3nc(C)c(C(C)=O)s3)NC2=O)c1O ?
> 100 µM

Would you kindly share the measured TGI for O=C(O)Cc1ccc(Oc2nc3ccccc3nc2-c2ccccc2)cc1 ?
> 100 µM

Bench note: what TGI did CCC1=C(c2ccc(OC)cc2)CC[C@]2(CCNC2=O)[C@@H]1C show?
76.2 µM

// TGI lookup, key: CCOP(=O)(/C=C/n1cnc2c(=O)n(C(C)=O)c(N)nc21)OCC
> 100 µM

TGI for COC(=O)c1ccccc1/C=C1\Cc2ccc3ccccc3c2C1C (configuration not stated) ?
> 100 µM

I'd like to know its TGI. The compound in question is CN1CCOCCOCCOc2ccccc2NC(=O)c2nc(cnc2N)-c2ccc(cc2)S1(=O)=O
> 100 µM

Using the record for C=C(C)[C@@H]1CC[C@]2(C(=O)n3ccnc3)CC[C@]3(C)[C@H](CC[C@@H]4[C@@]5(C)CCCNC(C)(C)[C@@H]5CC[C@]43C)[C@@H]12 , report its TGI.
5.08 µM

Data credit: PubChem BioAssay (NCI)
